System: CAKI-1 renal
Experiment: NCI tumour cell line growth inhibition, 48 h
parameter measured: TGI

These recorded examples may help you get a feel for the data.
molecule	TGI
CN1CCN(c2ccc(-c3cnc4c(-c5csc6ccccc56)cnn4c3)cc2)CC1	> 15 µM
NC(=O)c1csc(C2C=CC(CO)O2)n1 (centres undefined)	> 100 µM
Cc1ccc(-c2ccc(Nc3c4ccccc4nc4ccccc34)cc2)cn1	9.02 µM
N#Cc1c(=O)c2cc([N+](=O)[O-])ccc2n2c1[nH]c1ccccc12	> 92 µM
O=[N+]([O-])CC(SCc1ccccc1)c1ccc2c(c1)OCO2 (centres undefined)	28.6 µM
CC(C)CCCC(C)[C@H]1CC[C@H]2[C@@H]3CC[C@H]4C[C@@H](CCC=C(c5cc(Cl)c(O)c(C(=O)OC(C)(C)C)c5)c5cc(Cl)c(O)c(C(=O)OC(C)(C)C)c5)CC[C@]4(C)[C@H]3CC[C@]12C (some centres undefined)	> 50 µM

Give the measured TGI of CC1=C(C(=O)Nc2ccccc2C)C(c2ccc([N+](=O)[O-])cc2)C(C(=O)Nc2ccccc2C)=C(C)N1 .
> 100 µM

And O=[N+]([O-])c1ccc(Cl)cc1C1ON=C(c2ccccc2)N1C12CC3CC(CC(C3)C1)C2 (centres undefined) ?
> 100 µM

How about COC(=O)c1ccc2n1C1CC3CC(CC2C3)C1 ?
> 100 µM

Further, for Nc1nc2c(c3ncccc13)C(c1cccc(Cl)c1)Cc1ncccc1-2 (centres undefined) ?
51.8 µM

Ok, now FC(F)(F)c1ccc2c(c1)nc(Cc1ccccc1)n2C[C@@H]1CCCN2CCCCC12 (some centres undefined)
31.1 µM

Can you check COc1ccc(/C=C(/C(=O)N2CCCC2)c2cc(OC)c(OC)c(OC)c2)cc1N next?
> 100 µM

// same read-out, input: CC(=O)Oc1ccn2nc(C)c(Br)c2c1Br
21.7 µM

Subsequent entry: O=C(CC/C(C/C(=N/O)c1ccc(F)cc1)=N/O)N(Cc1ccccc1)Cc1ccccc1
> 100 µM
